system: Plasmodium falciparum Dd2 (multidrug-resistant); test: Growth inhibition assay, resistant strain Dd2; format: cell-based; details: Plasmodium falciparum, DD2, 72 h, read-out: IC50, Dd2
Value type: IC50 (nM)

Compound	Units label	Result value
CCN(CC)CCCC(C)Nc1ccnc2cc(Cl)ccc12 (stereo not shown) [Chloroquine, Chloroquine diphosphate]	nM	302

* * *

tested on: Plasmodium falciparum strain 3D7; experiment: Ionophoric activity assay: growth inhibition with KCl or MgCl2 supplementation; type: cell-based; conditions: Plasmodium falciparum, 3D7, 72 h, read-out: IC50, MgCl2 supplemented
pIC50: −log10 of the molar value.
Value type: pIC50

Molecule	Value type	Result value
CCN(CC)CCCC(C)Nc1ccnc2cc(Cl)ccc12 (stereo not shown) [Chloroquine, Chloroquine diphosphate]	pIC50	8.66

* * *

tested on: Plasmodium falciparum strain 3D7; assay: Growth inhibition assay with asexual Plasmodium falciparum (HRP2 ELISA); assay type: cell-based; settings: IC50 3D7 versus A1-H.1, 6 days
Structures can show the parent of a compound that is named as a salt.
Classification field: rule met = Fold differences, 6 day-assays at or over 0.4; rule not met = Fold differences, 6 day-assays under 0.4.

Compound	Label
C=C1c2c(Cl)ccc(O)c2C(=O)C2=C(O)[C@]3(O)C(=O)C(C(N)=O)=C(O)[C@@H](N(C)C)[C@@H]3[C@@H](O)[C@H]12 [Meclocycline]	rule not met
CCN(CC)CCCC(C)Nc1ccnc2cc(Cl)ccc12 (centres unmarked) [Chloroquine, Chloroquine diphosphate]	rule met
CC(C)[C@@H](N)C(=O)O[C@H](C)[C@@H]1C/C=C\CC[C@H](O)C(C)(C)[C@@H]2CC[C@@H](C)[C@@]3(O2)O[B-]24O[C@@H](C(=O)O1)[C@]1(O[C@@H](CC[C@H]1C)C(C)(C)[C@H](O)CCC[C@@H]1C[C@H](OC(=O)[C@@H]3O2)[C@@H](C)O1)O4.[H+] [Boromycin]	rule not met
CON(C)Cc1ccc(O)c2c1C[C@H]1C[C@H]3[C@H](N(C)C)C(O)=C(C(N)=O)C(=O)[C@@]3(O)C(O)=C1C2=O [Sarecycline, Sarecycline hydrochloride]	rule not met

* * *

system: Plasmodium falciparum strain 3D7; assay: Growth inhibition assay with asexual Plasmodium falciparum (HRP2 ELISA); type: cell-based; details: IC50 3D7 versus A1-H.1, 3 days
Structures can show the parent of a compound that is named as a salt.
Classification field: 1 (yes) = Fold differences, 3 day-assays at or over 5; 0 (no) = Fold differences, 3 day-assays under 5.

Molecule	Label
CON(C)Cc1ccc(O)c2c1C[C@H]1C[C@H]3[C@H](N(C)C)C(O)=C(C(N)=O)C(=O)[C@@]3(O)C(O)=C1C2=O [Sarecycline, Sarecycline hydrochloride]	1 (yes)
CCN(CC)CCCC(C)Nc1ccnc2cc(Cl)ccc12 (stereo not shown) [Chloroquine, Chloroquine diphosphate]	0 (no)
CN(C)c1ccc(O)c2c1C[C@H]1C[C@H]3[C@H](N(C)C)C(O)=C(C(N)=O)C(=O)[C@@]3(O)C(O)=C1C2=O [Minocycline, Minocycline hydrochloride]	0 (no)
CC(C)[C@@H](N)C(=O)O[C@H](C)[C@@H]1C/C=C\CC[C@H](O)C(C)(C)[C@@H]2CC[C@@H](C)[C@@]3(O2)O[B-]24O[C@@H](C(=O)O1)[C@]1(O[C@@H](CC[C@H]1C)C(C)(C)[C@H](O)CCC[C@@H]1C[C@H](OC(=O)[C@@H]3O2)[C@@H](C)O1)O4.[H+]	0 (no)
CN(C)c1cc(CNCC(C)(C)C)c(O)c2c1C[C@H]1C[C@H]3[C@H](N(C)C)C(O)=C(C(N)=O)C(=O)[C@@]3(O)C(O)=C1C2=O	1 (yes)
CN(C)[C@@H]1C(O)=C(C(N)=O)C(=O)[C@@]2(O)C(O)=C3C(=O)c4c(O)c(NC(=O)CN5CCCC5)cc(F)c4C[C@H]3C[C@@H]12	0 (no)

* * *

test system: Plasmodium falciparum strain 3D7; test: Growth inhibition assay with asexual Plasmodium falciparum (HRP2 ELISA); assay type: cell-based; conditions: IC50 3D7 versus A1-H.1, 6 days
Structures can show the parent of a compound that is named as a salt.
Classification field: criterion met = Fold differences, 6 day-assays at or over 0.9; criterion not met = Fold differences, 6 day-assays under 0.9.

Compound	Label
CN(C)c1ccc(O)c2c1C[C@H]1C[C@H]3[C@H](N(C)C)C(O)=C(C(N)=O)C(=O)[C@@]3(O)C(O)=C1C2=O [Minocycline, Minocycline hydrochloride]	criterion not met
CN(C)[C@@H]1C(O)=C(C(N)=O)C(=O)[C@@]2(O)C(O)=C3C(=O)c4c(O)ccc(Cl)c4[C@@H](O)[C@H]3C[C@@H]12	criterion met
CN(C)[C@@H]1C(O)=C(C(=O)NCNCCCC[C@H](N)C(=O)O)C(=O)[C@@]2(O)C(O)=C3C(=O)c4c(O)cccc4[C@@](C)(O)[C@H]3C[C@@H]12	criterion met
C[C@H]1c2cccc(O)c2C(=O)C2=C(O)[C@]3(O)C(=O)C(C(N)=O)=C(O)[C@@H](N(C)C)[C@@H]3[C@@H](O)[C@@H]21 [Doxycycline, Doxycycline Hyclate]	criterion not met
CN(C)c1cc(CNCC(C)(C)C)c(O)c2c1C[C@H]1C[C@H]3[C@H](N(C)C)C(O)=C(C(N)=O)C(=O)[C@@]3(O)C(O)=C1C2=O	criterion not met
CO[C@@H]1[C@@H](O[C@@H]2O[C@H](C)[C@@H](O[C@H]3C[C@@](C)(O)[C@@H](OC(=O)CC(C)C)[C@H](C)O3)[C@H](N(C)C)[C@H]2O)[C@@H](CC=O)C[C@@H](C)[C@@H](O)/C=C/C=C/C[C@@H](C)OC(=O)C[C@H]1OC(C)=O	criterion met
C=C1c2cccc(O)c2C(=O)C2=C(O)[C@]3(O)C(=O)C(C(N)=O)=C(O)[C@@H](N(C)C)[C@@H]3[C@@H](O)[C@H]12	criterion met

* * *

system: Plasmodium falciparum strain 3D7; assay: Ionophoric activity assay: growth inhibition with KCl or MgCl2 supplementation; assay type: cell-based; details: Plasmodium falciparum, 3D7, 72 h, read-out: IC50 (in nM) control

Molecule	IC50
CCN(CC)CCCC(C)Nc1ccnc2cc(Cl)ccc12 (stereo not shown) [Chloroquine, Chloroquine diphosphate]	12 nM
